# literature pull: UniProtKB P33032 IC50
The response must be a number in nM with no trailing unit.

Completed entries (count: 3):
* CNC1CCN(/C(=N/c2ccc(C(=O)NCCc3ccc(Cl)cc3Cl)cc2)NC2CCCCC2)C1 (configuration not stated) | 630
* CC[C@H](NC(C)=O)c1cc(Cl)ccc1C1CCN(C(=O)[C@H]2CN(C(C)(C)C)C[C@@H]2c2ccc(C(F)(F)F)cc2)CC1 | 450
* CC(=O)N[C@@H]1CSSC[C@@H](C(=O)N2CCC[C@H]2C(=O)N2CCC[C@H]2C(=O)N[C@@H](CCCCN)C(=O)N[C@@H](CC(=O)O)C(N)=O)NC(=O)[C@H](Cc2c[nH]c3ccccc23)NC(=O)[C@H](CCCNC(=N)N)NC(=O)[C@@H](Cc2ccccc2)NC(=O)[C@H](Cc2c[nH]cn2)NC(=O)[C@H](CCC(=O)O)NC1=O | 73

QUERY: Which value of IC50 has been reported for "CC(=O)N[C@@H]1C(=O)N[C@@H](CCC(=O)O)C(=O)N[C@@H](Cc2c[nH]cn2)C(=O)N[C@H](Cc2ccc3ccccc3c2)C(=O)N[C@@H](CCCN=C(N)N)C(=O)N[C@@H](Cc2c[nH]c3ccccc23)C(=O)N[C@H](C(=O)N2CCC[C@H]2C(=O)N2CCC[C@H]2C(=O)N[C@@H](CCCCN)C(=O)N[C@@H](CC(=O)O)C(N)=O)CSSC1(C)C" in the records?
RESULT: 94

QUERY: // query: "C[C@@H]1CN[C@@H](C)CN1/C(=N/c1ccc(C(=O)NCCc2ccc(Cl)cc2Cl)cc1)NC1CCCCC1"
RESULT: 380

QUERY: Same question, O=C(NCCc1ccc(Cl)cc1Cl)c1ccc(N/C(=N\C2CCNC2)NC2CCCCC2)cc1 (configuration not stated) this time
RESULT: 530

QUERY: Also "CC[C@H](NC(C)=O)c1cc(Cl)ccc1C1CCN(C(=O)[C@H]2CN(C(C)(C)C)C[C@@H]2c2ccc(Cl)cc2Cl)CC1" , if possible.
RESULT: 245

QUERY: Could you do the same for "O=C(NCCc1ccc(Cl)cc1Cl)c1ccc(NC(=NC2CCCCC2)N2CCNCC2)cc1" , please?
RESULT: 460

###

Assembled from different publications: IC50 for Melanocortin receptor 5 (Homo sapiens, UniProt P33032).

Take a look at these entries with their results.
- CC(=O)N[C@@H](Cc1cnc[nH]1)C(=O)N[C@H](Cc1ccccc1)C(=O)N[C@@H](CCCNC(=N)N)C(=O)N[C@@H](Cc1c[nH]c2ccccc12)C(N)=O: > 10 µM
- CC(=O)N[C@@H](Cc1c[nH]cn1)C(=O)N[C@H](Cc1ccccc1)C(=O)N[C@H](CCCN=C(N)N)C(=O)N[C@H](Cc1c[nH]c2ccccc12)C(N)=O: > 10 µM
- CC(=O)N[C@H](Cc1ccccc1)C(=O)N[C@@H](CCCNC(=N)N)C(=O)N[C@H](Cc1c[nH]c2ccccc12)C(N)=O: > 10 µM

QUERY: Need IC50, item "N=C(N)NCCC[C@@H]1N[C@H](CNC(=O)c2ccc3cc(O)ccc3c2)CCN(CC(c2ccccc2)c2ccccc2)C1=O"
RESULT: < 0.1 µM

QUERY: Repeat with "CC(=O)N[C@H]1CC(=O)NCCCC[C@@H](C(=O)N2CCC[C@H]2C(=O)N2CCC[C@H]2C(=O)N[C@@H](CCCCN)C(=O)N[C@@H](CC(=O)O)C(N)=O)NC(=O)[C@H](Cc2c[nH]c3ccccc23)NC(=O)[C@H](CCCNC(=N)N)NC(=O)[C@@H](Cc2ccccc2)NC(=O)[C@H](Cc2c[nH]cn2)NC(=O)[C@H](CCC(=O)O)NC1=O"
RESULT: > 10 µM

QUERY: Same thing, different compound: "CC(=O)N[C@@H](Cc1ccccc1)C(=O)N[C@@H](CCCNC(=N)N)C(=O)N[C@H](Cc1c[nH]c2ccccc12)C(N)=O"
RESULT: > 10 µM

###

pIC50: −log10 of the molar value.
The following molecules were reported with pIC50 values on UniProt:P33032 in different studies.
Label rule, in plain words: pIC50 of 6 and up is Y, under 6 is N.

Here are 4 molecules together with their reported answers.
• CC[C@H](NC(C)=O)c1cc(Cl)ccc1C1CCN(C(=O)[C@@H]2CN(C(C)(C)C)C[C@H]2c2ccc(OC)cc2F)CC1 = Y
• CC(=O)N[C@@H](Cc1c[nH]cn1)C(=O)N[C@H](Cc1ccccc1)C(=O)N[C@H](CCCN=C(N)N)C(=O)N[C@@H](Cc1c[nH]c2ccccc12)C(N)=O = N
• CC(=O)N[C@H]1CSSC[C@@H](C(=O)N2CCC[C@H]2C(=O)N2CCC[C@H]2C(=O)N[C@@H](CCCCN)C(=O)N[C@@H](CC(=O)O)C(N)=O)NC(=O)[C@H](Cc2c[nH]c3ccccc23)NC(=O)[C@H](CCCNC(=N)N)NC(=O)[C@@H](Cc2ccc3ccccc3c2)NC(=O)[C@@H]2CCCN2C(=O)[C@H](CCC(=O)O)NC1=O = N
• CC[C@H](NC(C)=O)c1cc(Cl)ccc1C1CCN(C(=O)[C@H]2CN(C(C)(C)C)C[C@@H]2c2ccc(Br)cc2F)CC1 = Y

QUERY: Threshold query (pIC50 >= 6) on "CC(=O)N[C@@H]1C(=O)N[C@@H](CCC(=O)O)C(=O)N[C@@H](Cc2c[nH]cn2)C(=O)N[C@H](Cc2ccccc2)C(=O)N[C@@H](CCCN=C(N)N)C(=O)N[C@@H](Cc2c[nH]c3ccccc23)C(=O)N[C@H](C(=O)N2CCC[C@H]2C(=O)N2CCC[C@H]2C(=O)N[C@@H](CCCCN)C(=O)N[C@@H](CC(=O)O)C(N)=O)CSSC1(C)C"
RESULT: N

QUERY: Next up: "CC(=O)N[C@H](Cc1ccccc1)C(=O)N[C@H](CCCN=C(N)N)C(=O)N[C@@H](Cc1c[nH]c2ccccc12)C(N)=O"
RESULT: N
